# Tested on: HGGX42 (H3.3 G34R paediatric high-grade glioma line)
# assay.protocol: EC50 (inflection of fitted growth-inhibition curve) (log10 M)
// values below are reported EC50 (log10 M)
Give only the figure.

These recorded examples may help you get a feel for the data.
1) COc1cccc2c1C(=O)c1c(O)c3c(c(O)c1C2=O)C[C@@](O)(C(=O)CO)C[C@@H]3O[C@H]1C[C@H](N)[C@H](O)[C@H](C)O1; -6.5
2) CC(C(O)c1ccc(O)cc1)N1CCC(Cc2ccccc2)CC1 (centres undefined); -5.06
3) CC(=O)c1ccc2c(c1)c1cc(C(C)=O)ccc1n2CCNC(C)C; -5.67
4) CO[C@H]1C[C@@H]2CC[C@@H](C)[C@@](O)(O2)C(=O)C(=O)N2CCCC[C@H]2C(=O)O[C@H]([C@H](C)C[C@@H]2CC[C@@H](OCCO)[C@H](OC)C2)CC(=O)[C@H](C)/C=C(\C)[C@@H](O)[C@@H](OC)C(=O)[C@H](C)C[C@H](C)/C=C/C=C/C=C/1C; -4.78
5) COC(=O)[C@]12CCC(C)(C)C[C@H]1[C@H]1C(=O)C=C3[C@@]4(C)C=C(C#N)C(=O)C(C)(C)[C@@H]4CC[C@@]3(C)[C@]1(C)CC2; -5.83
6) CN1CCCN(C(=O)c2cccc(-c3ccc(/C=C4/C(=O)Nc5ccc(Cl)cc54)o3)c2)CC1; -5.75
7) Cc1ccc(C(=O)Nc2ccc(CN3CCN(C)CC3)c(C(F)(F)F)c2)cc1C#Cc1cnc2cccnn12; -5.22
8) COc1cc(F)ccc1-c1ncnc(Nc2cccc(CS(C)(=N)=O)c2)n1 (centres undefined); -6.01
9) CCCCc1oc2ccc(NS(C)(=O)=O)cc2c1C(=O)c1ccc(OCCCN(CCCC)CCCC)cc1; -5.41
10) CN1[C@@H]2CC[C@H]1C[C@@H](OC(=O)c1cc(Cl)cc(Cl)c1)C2; -5.38

Fill blank: measured EC50 (log10 M) of the compound "Fc1ccc(-c2c3cccc(C(F)(F)F)c3nn2Cc2ccc(F)cc2Cl)cc1" is ____.
-5.03

Item COc1ccc(C[C@H](NC(=O)[C@H](C)NC(=O)CN2CCOCC2)C(=O)N[C@@H](Cc2ccccc2)C(=O)C2(C)CO2)cc1 (stereo in doubt) has what recorded EC50 (log10 M)?
-6.73

Could you tell me which EC50 (log10 M) is on file for "COc1ncc(-c2ccc3nccc(-c4ccnnc4)c3c2)cc1NS(=O)(=O)c1ccc(F)cc1F" ?
-6.22

Look up EC50 (log10 M): "CC(C)C[C@H](NC(=O)CNC(=O)c1cc(Cl)ccc1Cl)B(O)O"
-7.31
